The entries below come with measured pIC50 values attached.
experiment: PI 3-Kinase (human) HTRF assay, p110δ/p85α; format: biochemical; details: read-out: PI3K γ IC50
pIC50: −log10 of the molar value.

- Nc1nc2c(-c3ccc4ncc(C(=O)N5CCOCC5)n4c3)cccc2o1: < 5.00
- CN1CCC(c2cnc3ccc(-c4ccc5oc(N)nc5c4)cc3n2)CC1: < 5.00
- NC(=O)[C@@H]1CCCN1c1cnc2ccc(-c3ccc4oc(N)nc4c3)cc2n1: < 5.00
- Nc1nc2cc(-c3ccc4ncc(C(=O)N5CCOCC5)n4c3)c(F)cc2o1: > 5.00
- CC(=O)Nc1n[nH]c2cc(-c3ccc4oc(N)nc4c3)ccc12: < 5.00
- CC1(C)CN(C2CN(c3cnc4ccc(-c5ccc6oc(N)nc6c5)cc4n3)C2)CCN1: > 6.00
- Nc1nc2cc(-c3ccc4ncc(N5CCNC(C(F)(F)F)C5)nc4c3)ccc2o1 (stereo not drawn): > 5.00
- Nc1nc2cc(-c3ccc4ncc(N5CC(N6CCNCC6)C5)nc4c3)ccc2o1: > 6.00

Moving on to another molecule below.
[Q] Form field: reported pIC50 of Nc1nc2cc(-c3nc4cc(-c5cccnc5)cnc4s3)ccc2o1
[A] < 5.00

---

pIC50: −log10 of the molar value.
List of pIC50 tested on PI3K α (Homo sapiens (Human), UniProt P42336).
Sequence (P42336 whole entry): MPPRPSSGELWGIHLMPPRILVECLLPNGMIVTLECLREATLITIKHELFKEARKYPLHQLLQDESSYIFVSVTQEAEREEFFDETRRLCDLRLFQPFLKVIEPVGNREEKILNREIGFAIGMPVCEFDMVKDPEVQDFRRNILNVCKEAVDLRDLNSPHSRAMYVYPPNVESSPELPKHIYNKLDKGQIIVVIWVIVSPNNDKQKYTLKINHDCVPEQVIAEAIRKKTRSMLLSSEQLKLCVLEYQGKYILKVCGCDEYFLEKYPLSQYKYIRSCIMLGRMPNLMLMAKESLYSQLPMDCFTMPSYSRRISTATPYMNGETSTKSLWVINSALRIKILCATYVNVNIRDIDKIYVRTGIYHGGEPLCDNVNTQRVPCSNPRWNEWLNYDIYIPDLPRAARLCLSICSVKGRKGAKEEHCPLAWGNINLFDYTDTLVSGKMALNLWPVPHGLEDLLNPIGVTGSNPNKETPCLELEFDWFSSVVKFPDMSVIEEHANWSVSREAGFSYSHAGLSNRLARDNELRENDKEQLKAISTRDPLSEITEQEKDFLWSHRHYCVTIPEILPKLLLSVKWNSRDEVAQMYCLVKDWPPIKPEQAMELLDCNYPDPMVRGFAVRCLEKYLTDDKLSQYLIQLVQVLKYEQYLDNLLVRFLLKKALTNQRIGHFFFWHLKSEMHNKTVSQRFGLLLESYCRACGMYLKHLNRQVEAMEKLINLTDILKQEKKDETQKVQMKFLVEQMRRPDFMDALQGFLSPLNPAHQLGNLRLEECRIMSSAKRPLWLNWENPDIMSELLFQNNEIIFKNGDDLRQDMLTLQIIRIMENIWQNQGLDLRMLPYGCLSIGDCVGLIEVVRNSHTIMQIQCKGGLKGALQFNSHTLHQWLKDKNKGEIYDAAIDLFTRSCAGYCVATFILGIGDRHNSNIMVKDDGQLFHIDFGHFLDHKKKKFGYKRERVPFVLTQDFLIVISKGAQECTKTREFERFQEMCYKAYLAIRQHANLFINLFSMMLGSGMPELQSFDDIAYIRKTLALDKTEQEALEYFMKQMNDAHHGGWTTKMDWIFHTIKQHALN
Sequence (P27986 whole entry partner): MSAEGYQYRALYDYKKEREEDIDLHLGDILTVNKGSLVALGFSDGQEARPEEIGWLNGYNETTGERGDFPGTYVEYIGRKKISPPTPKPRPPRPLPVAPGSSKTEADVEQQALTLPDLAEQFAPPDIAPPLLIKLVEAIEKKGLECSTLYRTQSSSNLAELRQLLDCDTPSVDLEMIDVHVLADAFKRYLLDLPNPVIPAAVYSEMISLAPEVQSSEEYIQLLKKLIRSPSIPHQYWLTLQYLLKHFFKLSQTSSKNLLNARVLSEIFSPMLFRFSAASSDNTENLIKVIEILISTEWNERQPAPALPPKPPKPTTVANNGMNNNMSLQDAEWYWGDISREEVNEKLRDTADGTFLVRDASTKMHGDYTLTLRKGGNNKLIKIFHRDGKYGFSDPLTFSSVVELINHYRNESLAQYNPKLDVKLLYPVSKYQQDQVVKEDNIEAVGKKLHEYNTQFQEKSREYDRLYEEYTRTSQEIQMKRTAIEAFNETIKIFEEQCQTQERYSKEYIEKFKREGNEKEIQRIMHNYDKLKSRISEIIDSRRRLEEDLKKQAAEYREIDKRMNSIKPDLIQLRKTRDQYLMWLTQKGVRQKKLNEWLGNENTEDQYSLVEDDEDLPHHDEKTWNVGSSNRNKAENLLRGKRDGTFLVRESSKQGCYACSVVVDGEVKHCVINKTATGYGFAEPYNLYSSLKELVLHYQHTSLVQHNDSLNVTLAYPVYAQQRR

* C[C@H]1CN(C2CN(c3cnc4ccc(-c5ccc6oc(N)nc6c5)nc4c3)C2)CCN1C | > 7.00
* C[C@@H]1CN(C2CN(c3cnc4ccc(-c5ccc6oc(N)nc6c5)cc4n3)C2)CCN1 | > 7.00
* CN1CCN(c2ccc3ncc(-c4ccc5oc(N)nc5c4)cc3n2)CC1 | > 5.00
* Nc1nc2cc(-c3ccc4ncc(N5CC(N6CCN(CC7CC7)CC6)C5)nc4n3)ccc2o1 | > 7.00
* CC(C)Oc1nc(-c2ccc3oc(N)nc3c2)cnc1N | > 5.00
* Nc1nc2cc(-c3ccc4ncc(N5CC[C@H](O)C5)nc4c3)ccc2o1 | > 7.00
* Nc1nc2cc(-c3ccc4nccc(NC5CCOCC5)c4c3)ccc2o1 | > 5.00
* Nc1nc2cc(-c3cnc4ccc(N5CCOCC5)nc4c3)ccc2o1 | > 5.00

[Q] Value wanted: pIC50 (PI3K α (Homo sapiens (Human), UniProt P42336)) of entry Nc1nc2cc(-c3ccc4ncc(N5CCn6cncc6C5)nc4c3)ccc2o1
[A] > 7.00

[Q] GET /values?readout=pIC50&system=PI3K α (Homo sapiens (Human), UniProt P42336)&item= Cc1c(-c2ccc3oc(N)nc3c2)ccc2ncc(N3CC(N4CCOCC4)C3)nc12
[A] > 6.00

[Q] Please state recorded pIC50 (tested on PI3K α (Homo sapiens (Human), UniProt P42336)) of Nc1nc2cc(-c3ccc4ncc(=O)[nH]c4c3)ccc2o1
[A] > 7.00

[Q] PI3K α (Homo sapiens (Human), UniProt P42336) / pIC50 / Nc1nc2ccc(-c3ccc4ncc(C(=O)N5CCOCC5)n4c3)cc2s1 : value?
[A] > 6.00

[Q] Entry CC1(C)CN(C2CN(c3cnc4ccc(-c5ccc6oc(N)nc6c5)nc4c3)C2)CCN1 , system PI3K α (Homo sapiens (Human), UniProt P42336): what pIC50 was measured?
[A] > 7.00

[Q] Find the measured pIC50: item Nc1nsc2cc(-c3ccc4ncc(C(=O)N5CCOCC5)n4c3)ccc12 , target or system PI3K α (Homo sapiens (Human), UniProt P42336).
[A] > 5.00

[Q] Param readout = pIC50; param system = PI3K α (Homo sapiens (Human), UniProt P42336); param query = Nc1nc2cc(-c3ccc4ncc(N5CCN(C(=O)[C@H]6CCCN6)CC5)nc4c3)ccc2o1 ; response: value
[A] > 7.00

[Q] Notebook: pull reported pIC50 for PI3K α (Homo sapiens (Human), UniProt P42336), entry Nc1nc2cc(-c3ccc4ncc(N5CCN(C(=O)C6(N)CCC6)CC5)nc4c3)ccc2o1
[A] > 7.00

[Q] Value wanted: pIC50 (PI3K α (Homo sapiens (Human), UniProt P42336)) of entry Nc1nc2cccc(-c3ccc4nccc(-c5ccncc5)c4c3)c2o1
[A] > 7.00

[Q] Look up pIC50 with PI3K α (Homo sapiens (Human), UniProt P42336) for this compound: CC(=O)Nc1nc(C)c(-c2ccc3oc(N)nc3c2)s1
[A] > 6.00

[Q] Query for PI3K α (Homo sapiens (Human), UniProt P42336): what pIC50 does the record show for COCCN1CCN(c2cnc3ccc(-c4ccc5oc(N)nc5c4)cc3n2)CC1 ?
[A] > 7.00

[Q] Form entry - test system: PI3K α (Homo sapiens (Human), UniProt P42336); read-out: pIC50; compound: CC(C)N1CCN(C2CN(c3cnc4ccc(-c5ccc6oc(N)nc6c5)cc4n3)C2)CC1
[A] > 7.00

[Q] Form field: pIC50 recorded for Nc1nc2cc(-c3ccc4ncnc(NC5CCN(C(=O)C6CC6)CC5)c4c3)ccc2o1 with PI3K α (Homo sapiens (Human), UniProt P42336) (enter value)
[A] > 7.00

---

Assay read-out IC50; system under study: mTORC (Homo sapiens (Human), UniProt P42345).
Sequence (P42345 1360-2549): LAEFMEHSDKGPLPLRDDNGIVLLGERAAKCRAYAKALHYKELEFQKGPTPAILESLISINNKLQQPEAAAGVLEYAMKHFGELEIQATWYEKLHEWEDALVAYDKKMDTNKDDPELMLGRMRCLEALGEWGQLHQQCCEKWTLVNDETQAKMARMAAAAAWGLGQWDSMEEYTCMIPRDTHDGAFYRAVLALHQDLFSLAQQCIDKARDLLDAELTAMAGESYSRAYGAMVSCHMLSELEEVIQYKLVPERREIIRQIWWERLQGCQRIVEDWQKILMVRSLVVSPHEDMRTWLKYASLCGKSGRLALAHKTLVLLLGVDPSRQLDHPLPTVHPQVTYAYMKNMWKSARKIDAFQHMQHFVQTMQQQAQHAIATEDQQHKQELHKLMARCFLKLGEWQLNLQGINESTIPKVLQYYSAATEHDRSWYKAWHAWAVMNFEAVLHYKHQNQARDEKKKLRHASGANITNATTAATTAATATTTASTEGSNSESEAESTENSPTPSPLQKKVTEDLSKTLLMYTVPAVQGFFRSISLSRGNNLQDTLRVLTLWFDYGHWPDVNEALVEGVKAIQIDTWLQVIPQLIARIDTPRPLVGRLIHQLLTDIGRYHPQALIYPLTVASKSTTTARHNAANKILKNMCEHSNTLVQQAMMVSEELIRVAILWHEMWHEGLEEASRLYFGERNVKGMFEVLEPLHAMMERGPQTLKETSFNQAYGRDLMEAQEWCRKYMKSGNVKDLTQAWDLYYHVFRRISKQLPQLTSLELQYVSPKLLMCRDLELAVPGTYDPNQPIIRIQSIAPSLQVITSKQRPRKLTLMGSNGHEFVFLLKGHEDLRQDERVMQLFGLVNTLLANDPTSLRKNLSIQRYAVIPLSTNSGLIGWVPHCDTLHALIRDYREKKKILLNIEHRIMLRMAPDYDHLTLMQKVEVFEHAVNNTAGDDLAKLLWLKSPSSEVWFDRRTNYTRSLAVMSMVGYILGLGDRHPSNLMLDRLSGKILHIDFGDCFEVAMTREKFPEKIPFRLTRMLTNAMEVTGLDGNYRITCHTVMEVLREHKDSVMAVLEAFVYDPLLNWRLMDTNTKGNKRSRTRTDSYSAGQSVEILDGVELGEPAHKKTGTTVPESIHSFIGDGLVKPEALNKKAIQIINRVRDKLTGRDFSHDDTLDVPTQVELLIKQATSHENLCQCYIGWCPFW

Worked cases, IC50 given:
- Nc1nc2cc(-c3ccc4ncc(N5CC(N6CC[C@H](O)C6)C5)nc4c3)ccc2o1: > 10 µM
- Cc1nccn1C1CN(c2cnc3ccc(-c4ccc5oc(N)nc5c4)cc3n2)C1: < 10 µM

[Q] Any idea what IC50 came out for Cc1nc2ccc(-c3ccc4oc(N)nc4c3)nn2c1-c1ccncc1 on mTORC (Homo sapiens (Human), UniProt P42345)?
[A] < 1 µM

---

The reader will find IC50 measurements below, all made with PI3K β (Homo sapiens (Human), UniProt P42338).
Sequence (P42338 whole entry): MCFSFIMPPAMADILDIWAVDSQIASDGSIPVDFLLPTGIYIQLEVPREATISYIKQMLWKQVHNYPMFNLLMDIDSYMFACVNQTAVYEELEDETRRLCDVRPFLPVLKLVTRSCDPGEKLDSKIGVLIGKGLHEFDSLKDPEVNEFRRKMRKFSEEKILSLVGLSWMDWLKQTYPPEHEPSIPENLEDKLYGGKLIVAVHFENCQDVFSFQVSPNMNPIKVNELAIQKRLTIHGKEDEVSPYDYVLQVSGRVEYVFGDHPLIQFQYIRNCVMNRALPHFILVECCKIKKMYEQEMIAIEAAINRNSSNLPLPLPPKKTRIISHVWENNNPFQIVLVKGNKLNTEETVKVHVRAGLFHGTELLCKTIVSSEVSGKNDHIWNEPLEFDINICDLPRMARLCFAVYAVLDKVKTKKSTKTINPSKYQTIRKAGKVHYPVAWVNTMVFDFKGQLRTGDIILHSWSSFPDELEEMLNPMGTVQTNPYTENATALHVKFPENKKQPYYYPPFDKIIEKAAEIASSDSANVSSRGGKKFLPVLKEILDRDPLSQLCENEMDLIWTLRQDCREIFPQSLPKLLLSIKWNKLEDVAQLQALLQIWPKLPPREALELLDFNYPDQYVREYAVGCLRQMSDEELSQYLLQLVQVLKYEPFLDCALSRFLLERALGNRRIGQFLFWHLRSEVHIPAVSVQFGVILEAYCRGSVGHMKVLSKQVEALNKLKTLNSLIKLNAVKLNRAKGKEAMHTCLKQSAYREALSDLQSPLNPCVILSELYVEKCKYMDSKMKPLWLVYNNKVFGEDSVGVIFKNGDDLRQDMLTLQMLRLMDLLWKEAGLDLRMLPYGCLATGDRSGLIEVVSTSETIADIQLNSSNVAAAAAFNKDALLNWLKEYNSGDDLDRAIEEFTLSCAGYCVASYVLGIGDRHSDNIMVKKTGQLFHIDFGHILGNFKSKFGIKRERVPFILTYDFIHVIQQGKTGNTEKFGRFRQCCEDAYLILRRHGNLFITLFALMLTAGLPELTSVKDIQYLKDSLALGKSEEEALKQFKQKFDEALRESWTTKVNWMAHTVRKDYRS
Sequence (P27986 whole entry partner): as the sequence (P27986 whole entry partner) above

Examples with their reported IC50 follow.
* Nc1nc2cc(-c3ccc4ncc(N5CC[C@H](O)C5)nc4c3)ccc2o1 | < 1 µM
* Nc1nc2cc(-c3ccc4ncc(N5CC(N6CC[C@@H](O)C6)C5)nc4c3)ccc2o1 | < 10 µM
* COc1ncc(-c2ccc3ncc(C(=O)N4CCOCC4)n3c2)cc1NS(=O)(=O)c1ccc(F)cc1F | < 0.1 µM
* C[C@H]1COCCN1C1CN(c2cnc3ccc(-c4ccc5oc(N)nc5c4)nc3n2)C1 | > 10 µM
* CC(C)(C#N)c1ccc(Nc2ncnc3ccc(-c4ccc5oc(N)nc5c4)cc23)cc1 | < 1 µM

[Q] // returns reported IC50 for input Nc1nc2cc(-c3ccc4ncc(C(=O)N5CC6CCC(C5)O6)n4c3)ccc2o1
[A] < 10 µM

[Q] For the molecule Nc1nc2cc(-c3ccc4ncc(C(=O)N5CCCC5)n4c3)ccc2o1 , what IC50 is on record?
[A] < 10 µM

[Q] What value of IC50 has been recorded for this entry: Nc1nc2cc(-c3ccc4ncc(C(=O)N5C6CCC5COC6)n4c3)ccc2o1
[A] > 10 µM

[Q] Look at this molecule and give its reported IC50. Nc1nc2cc(-c3c[nH]c4nccc(-c5ccncc5)c34)ccc2o1
[A] > 10 µM

[Q] Record request: IC50 value, item Nc1nc2cc(-c3ccc4ncc(N5CC(N6CCS(=O)(=O)CC6)C5)nc4c3)ccc2o1
[A] < 10 µM

[Q] Can you look up the measured IC50 of CC1(C)CN(C(=O)c2cnc3ccc(-c4ccc5oc(N)nc5c4)cn23)CCO1 for me?
[A] > 10 µM

[Q] Which IC50 is reported for this molecule? Nc1nc2cc(-c3ccc4ncc(N5CC(C(=O)N6CCOCC6)C5)nc4c3)ccc2o1 [drawing 359]
[A] < 1 µM

[Q] Param item = O=C(c1cnc2ccc(-c3ccc(Cl)c(NS(=O)(=O)c4ccc(F)cc4F)c3)cn12)N1CCOCC1 ; retrieve measured IC50.
[A] < 10 µM

[Q] Which IC50 value is on record for Nc1nc2cc(-c3ccc4ncc(N5CCC(F)(F)CC5)nc4n3)ccc2o1 ?
[A] > 10 µM

[Q] Return reported IC50; argument: Nc1nc2cc(-c3ccc4ncc(N5CC(O)C5)nc4c3)ccc2o1
[A] < 1 µM

[Q] Report IC50 for Nc1ccc2cc(-c3ccc4nccc(-c5ccncc5)c4c3)ccc2n1 please.
[A] > 10 µM

[Q] For the molecule CS(=O)(=O)CCN1CCN(C(=O)c2cnc3ccc(-c4ccc5oc(N)nc5c4)cn23)CC1 , what IC50 is on record?
[A] < 10 µM

[Q] State the recorded IC50 for this entry: CC(C)(N)C(=O)N1CCN(c2cnc3ccc(-c4ccc5oc(N)nc5c4)nc3n2)CC1
[A] < 10 µM

[Q] So what's the measured IC50 for this one? O=C(c1cnc2ccc(-c3ccc(Cl)c(NS(=O)(=O)c4ccccc4)c3)cn12)N1CCOCC1
[A] > 10 µM

[Q] Quick one: IC50 of CC1(C)COCCN1C(=O)c1cnc2ccc(-c3ccc4oc(N)nc4c3)cn12 ?
[A] > 10 µM

[Q] What value of IC50 has been recorded for this entry: Nc1nc2cc(-c3ccc4ncc(N5CC(n6cccn6)C5)nc4c3)ccc2o1
[A] < 10 µM

[Q] // IC50 lookup, key: Nc1nc2cc(-c3ccc4ncc(N5CC(N6CCN(CC7CC7)CC6)C5)nc4n3)ccc2o1
[A] < 10 µM

[Q] May I ask what IC50 has been recorded for CC(C)N1CCC(n2cnc3ccc(-c4ccc5oc(N)nc5c4)cc3c2=O)CC1 ?
[A] < 10 µM

[Q] Which IC50 value is on record for CC(=O)N1CCN(c2cnc3ccc(-c4ccc5oc(N)nc5c4)cc3n2)CC1 ?
[A] < 0.1 µM

Value source: patent US9682141B2
